Target: T1, UNK ZnF1-3 (human, UniProt Q9C0B0 31-174)
T1 sequence: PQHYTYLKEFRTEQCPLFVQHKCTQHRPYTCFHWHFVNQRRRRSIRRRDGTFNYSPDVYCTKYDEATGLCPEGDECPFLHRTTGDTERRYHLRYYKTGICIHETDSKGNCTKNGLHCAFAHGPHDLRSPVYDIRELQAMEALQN
Assay Notes: nsRBNS (natural sequence RNA bind-n-seq); RBNS binding buffer (assumed for nsRBNS): 25 mM Tris pH 7.5, 150 mM KCl, 3 mM MgCl2, 0.01% Triton X-100, 500 ug/ml BSA, 20 U/ml SUPERase-In, 4 C; UNK is unkempt and MSI1 is Musashi-1; names of the RNAs are library labels; protein concentration not given here; high values mean tight binding
In all, about 24,000 sequences were measured (“enrichment r”: median about 0.99, highest 2% from about 3.7 on). The sample holds the highest values, similar sequences and a random draw of the others, so the mix is not that of the screen.
Reported Metric: binding signal (enrichment R)

>  <Binder>
5649169_5649289_955_CDS_ENSG00000160633_ENST00000592224|human|control|control (ssRNA) RNA: GGGAGUUCUACAGUCCGACGAUCACAGUCCGUCCUCUCGCCAUCGCCUGGCUGCUCCGCGGGCUCCCUUUUCACUACCGCUAACAGGCUGUCUGCCUUGCUCGACUGAGCGUGUGCUGUUGACUCGCUGGCCAAAUCUAAAUCCAACAGAGGAUUGAGCAUCA

>  <Quantity Unit>
enrichment R

>  <Value Reported>
0.689

$$$$
>  <Binder>
chr7:7679991:7679992:-_ENSG00000106399_ENST00000396682|hu_hu|hu_hu_hu_mus_False|48_58 (ssRNA) RNA: GGGAGUUCUACAGUCCGACGAUCUGGGAUGAAUCUUUUCCAGCUUCCCCACGAAGCACACGGGCCGGUCGAUAUACUGAGCUAGCAUGCCGGCGUUGACGCGCGCUUUGGGGAGCUGCAUUAUGUCCUCCAUGAUUCUGCCGCCAACAGAGGAUUGAGCAUCA

>  <Quantity Unit>
enrichment R

>  <Value Reported>
0.406

$$$$
>  <Binder>
chr7:44244176:44244177:+_ENSG00000106636_ENST00000223369|hu_mus|hu_hu_hu_mus_False|48_48 (ssRNA) RNA: GGGAGUUCUACAGUCCGACGAUCACUGUCGCUCCGGACGUAGACAUGGCAAAGAUACUCUUGUUCUUUGACAGAAGCUCUGCUGCCUUUCGAUGAGCGUUCCACAAUCAGUUGACUUGUAAAGGUCAUGAAUUCCUGCACACUCAACAGAGGAUUGAGCAUCA

>  <Quantity Unit>
enrichment R

>  <Value Reported>
0.634

$$$$
